Each recorded value in this set is attributed to the supplement of paper PMC10307832.

System: NCI-H358
Experiment: relative viability (nuclei count vs DMSO), 5 days (fraction); higher = more cells survive
Conditions: first compound 0.01 µM
The entries below come with measured relative viability values attached.
Answer using only a numeral; do not append any unit.

Ask: Recorded relative viability for CCN(CC)CCCCNc1ncc2cc(-c3cc(OC)cc(OC)c3)c(NC(=O)NC(C)(C)C)nc2n1 + C[C@@H](Oc1cc(-c2cnn(C3CCNCC3)c2)cnc1N)c1c(Cl)ccc(F)c1Cl [Crizotinib] (partner 1 µM) , please?
Result: 0.639

Ask: // returns reported relative viability for input O=c1cc(N2CCOCC2)oc2c(-c3cccc4c3sc3ccccc34)cccc12 + CC(=O)Nc1cccc(-n2c(=O)n(C3CC3)c(=O)c3c(Nc4ccc(I)cc4F)n(C)c(=O)c(C)c32)c1 [Trametinib] (partner 0.02 µM)
Result: 0.133
